- Tested on: SW-620 colon
- method-description: NCI-60 one-dose screen, 48 h (100 = growth as untreated, 0 = no growth, -100 = all killed)
- run-parameters: 10 µM unless noted
Compounds without any hit were thinned out: in the full panel of roughly 83,000, 20% have a hit. Activity calls are given as the source filed them. How the source made its calls: active means growth percent below 10; inactive means the rest.
value-kind: growth

Field: example entries. Status: answers known.
C#CCNC(=O)CC[C@@H](C)[C@H]1CC[C@H]2[C@@H]3CC[C@@H]4CC(=O)CC[C@]4(C)[C@H]3CC[C@]12C: -58.2% [100 µM] (active)
CC1Cc2c(ncnc2-n2cnc3ccccc32)N(C)c2ccccc21 (stereo not drawn): 17.7% (inactive)
Cn1cc(-c2noc(-c3cn(C)c4ncc(Br)cc34)n2)c2cc(Cl)ccc21: 39.9% (inactive)

Okay, here is my list. What is growth for each of these?
1. Cc1nn(-c2ccccc2)c(N2CCOCC2)c1-c1nc2ccc([N+](=O)[O-])cc2[nH]1
2. CCCCCCCCCCCCCC[n+]1cccc(C(N)=O)c1
3. CCCN1CC(c2ccc(OC)c(OC)c2)=C(c2cn(C(=O)OCC)c3ccccc23)C1=O
4. O=C(Nc1cccc(C2=NCCN2)c1)c1cccc(C(=O)Nc2cccc(C3=NCCN3)c2)c1
5. C#C[C@]1(O)CC[C@H]2[C@@H]3CC=C4c5nc(Nc6ccc(OC)cc6OC)sc5CC[C@]4(C)[C@H]3CC[C@@]21C

*A*
["116% (inactive)", "0.686% (active)", "31.5% (inactive)", "98.2% (inactive)", "-12.8% (active)"]

Okay, here is my list. What is growth for each of these?
1. CCc1ccc(-c2ccc(COc3ccc(CC4SC(=O)NC4=O)cc3)cc2)cc1 (stereo not drawn)
2. COc1cc(Cl)cc(-c2nn(C(=O)NS(=O)(=O)c3ccccc3)cc2-c2ccncc2)c1
3. COc1ccc2nc3cc(Cl)ccc3c(Nc3ccc(O)c(CN4CCCC4)c3)c2c1

*A*
80.7% (inactive)
114% (inactive)
-65.7% (active)

Okay, here is my list. What is growth for each of these?
1. CCOC(=O)c1nn(C2CCCCO2)c2ccc(NC(=O)CN3CCOCC3)cc12 (stereo not drawn)
2. Fc1ccc(NC(=S)c2ccccc2)cc1

*A*
["104% (inactive)", "102% (inactive)"]
